- studySystem: T1, murine IL-11 (mouse, UniProt P47873 22-199)
- T1 construct: bought from Invigate; also called mIL-11; mIL11
- T1 sequence: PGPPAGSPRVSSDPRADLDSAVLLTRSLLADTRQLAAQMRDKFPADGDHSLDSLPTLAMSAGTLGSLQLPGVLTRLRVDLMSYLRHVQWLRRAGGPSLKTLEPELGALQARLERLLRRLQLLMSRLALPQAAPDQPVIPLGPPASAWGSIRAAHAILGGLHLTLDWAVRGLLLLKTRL
- methodNotes: SPR, antibody captured, IL-11 as analyte
Here the recorded Kd is given for each entry.

- binder: "TPP-26306 (antibody, V domains shown, constant regions not restated) VH: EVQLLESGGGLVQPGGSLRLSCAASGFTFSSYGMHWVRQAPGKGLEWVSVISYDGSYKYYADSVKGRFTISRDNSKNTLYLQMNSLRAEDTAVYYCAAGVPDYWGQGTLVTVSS VL: QSVLTQPPSASGTPGQRVTISCTGSSSNIGAGYDVHWYQQLPGTAPKLLIYSNNERPSGVPDRFSGSKSGTSASLAISGLRSEDEADYYCAAWDQSLNGPVFGGGTKLTVL"
  Kd, pM: 650
- binder: "TPP-26323 (antibody, V domains shown, constant regions not restated) VH: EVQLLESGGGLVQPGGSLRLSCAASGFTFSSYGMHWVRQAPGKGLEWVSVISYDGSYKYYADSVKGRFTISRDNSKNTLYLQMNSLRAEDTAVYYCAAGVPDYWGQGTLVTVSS VL: QSVLTQPPSASGTPGQRVTISCTGSSSNIGAGYDVHWYQQLPGTAPKLLIYSNNERPSGVPDRFSGSKSGTSASLAISGLRSEDEADYYCAAWDGSLNGPVFGGGTKLTVL"
  Kd, pM: 580

Recorded values, source patent US20240317847A1.
